For each entry below, report its hygroscopic weight gain, Day 5 (%) value.
MEASUREMENT NOTES: High-humidity stability test (hygroscopic weight gain)
Type: physicochemical
ASSAY SETUP: 25° C., RH 95%±1%, day 5
Give bare numbers, in %.

> print(dat)
       compound  unit.of.measure  experimental.result
1  CN(C)CC(=O)O                %                61.72

State recorded hygroscopic weight gain, Day 5 (%) for all listed compounds.
1. CN(C)CC(=O)[O-].[Na+] [Sample 2, Sodium N,N-dimethylglycinate, reference compound]
2. CN(C)CC(=O)O.Cl [Sample 1, N,N-dimethylglycine hydrochloride, reference compound]
3. CN(C)CC(=O)[O-].O=C([O-])c1ccccc1.[Cu+2]

1: 49.09; 2: 79.86; 3: 2.41

###

Consider the following compounds; for each one, report its hygroscopic weight gain, Day 10 (%).
MEASUREMENT NOTES: High-humidity stability test (hygroscopic weight gain)
Assay type: physicochemical
ASSAY SETUP: 25° C., RH 95%±1%, day 10

Answered examples (3):
> print(dat)
                                   compound                    measured.property  experimental.result
1  CN(C)CC(=O)[O-].O=C([O-])c1ccccc1.[Cu+2]  hygroscopic weight gain, Day 10 (%)         2.81 ± 0.10%
2  CN(C)CC(=O)O.Cl [Sample 1, N,N-dimethylglycine hydrochloride, reference compound]  hygroscopic weight gain, Day 10 (%)        80.69 ± 0.59%
3                              CN(C)CC(=O)O  hygroscopic weight gain, Day 10 (%)        60.58 ± 0.21%

API: the following record is the query input.
Measured hygroscopic weight gain, Day 10 (%), CN(C)CC(=O)[O-].[Na+] [Sample 2, Sodium N,N-dimethylglycinate, reference compound] : 52.44 ± 0.48%
